biological target: CHK-His6 (Rattus norvegicus); assay: Kinetic analysis of phosphorylation of peptide substrates by CHK-His6; assay type: biochemical; conditions: CHK-His6 0.2 μM; substrate peptides 0–400 μM
Sequence (P41243 whole entry): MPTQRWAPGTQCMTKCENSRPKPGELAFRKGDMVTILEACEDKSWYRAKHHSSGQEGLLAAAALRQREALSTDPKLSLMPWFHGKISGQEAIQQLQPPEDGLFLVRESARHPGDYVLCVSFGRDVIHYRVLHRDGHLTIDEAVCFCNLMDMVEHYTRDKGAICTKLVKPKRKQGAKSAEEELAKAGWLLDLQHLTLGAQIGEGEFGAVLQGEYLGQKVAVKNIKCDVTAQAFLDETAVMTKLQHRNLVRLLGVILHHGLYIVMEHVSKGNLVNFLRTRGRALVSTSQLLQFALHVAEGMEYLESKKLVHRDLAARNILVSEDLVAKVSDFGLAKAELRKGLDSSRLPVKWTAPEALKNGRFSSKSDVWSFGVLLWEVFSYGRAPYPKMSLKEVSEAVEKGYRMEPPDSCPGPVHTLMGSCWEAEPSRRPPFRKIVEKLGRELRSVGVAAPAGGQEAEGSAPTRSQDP
endpoint: kcat/KM

Below, each entry is followed by its recorded kcat/KM result.
{"substance": "KKDPEERPTFEYLQSFTATEPQYQPGENL [SFK C-terminal Peptide, reference compound]", "kcat/KM": "5.1×10^−4 μM^−1S^−1"}
{"substance": "KKKK-MEPEGESYEDPPQEEYQEYEPEA [β-syn(112–134)]", "kcat/KM": "6.7×10^−4 μM^−1S^−1"}
{"substance": "KKK–GESFEDQDEGIYWNVGPEA [CHK-optimal peptide]", "kcat/KM": "140×10^−4 μM^−1S^−1"}

Consider now this further substance.
Which kcat/KM value belongs to KKK–GESFEAQDEGIYWNVGPEA [[D9A]CHK-optimal peptide] ?
111×10^−4 μM^−1S^−1

====

target: CHK-His6 (Rattus norvegicus); assay: Kinetic analysis of phosphorylation of peptide substrates by CHK-His6; assay type: biochemical; settings: CHK-His6 0.2 μM; substrate peptides 0–400 μM; Lineweaver-Burk plots
The following substances are shown together with reported kcat values.
Only the number, expressed in S^−1, is required.

Below, each entry is followed by its recorded kcat result.
{"substance": "KKKK-MEPEGESYEDPPQEEYQEYEPEA [β-syn(112–134)]", "kcat, S^−1": 0.17}
{"substance": "KKK–GESFEAQDEGIYWNVGPEA [[D9A]CHK-optimal peptide]", "kcat, S^−1": 1.27}
{"substance": "KKK–GESFEDQDEGIYWNVGPEA [CHK-optimal peptide]", "kcat, S^−1": 1.45}

Consider now this further substance.
Which kcat value belongs to KKDPEERPTFEYLQSFTATEPQYQPGENL [SFK C-terminal Peptide, reference compound] ?
0.13
